Where do the numbers come from? From paper PMC10397247.

Recorded interaction score by entry
Molecular target: T1, 4H477-bH
T1 chain: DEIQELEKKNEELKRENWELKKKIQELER
Test: two-hybrid library CCNG1;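 also: natural log of median RNA to DNA barcode read ratio; higher means stronger binding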
Give a plain numeric answer without units written out.

The cases that follow already have their interaction score on record.
DKIQELKKKNEELKRKNWELEKEIQELER [4H3057-bH]
-1.13
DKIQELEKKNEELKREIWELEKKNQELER [4H2503-bH]
-0.993
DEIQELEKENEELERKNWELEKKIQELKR [4H182-bH]
-0.331
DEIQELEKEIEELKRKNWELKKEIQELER [4H121-bH]
-1.3

Let's switch to this binder now.
Please fill in: interaction score reported for DEIQELEKKIEELKRENWELKKENQELKR [4H348-bH] = 0.107
